Reference source for all entries: PubChem BioAssay (NCI)

tested on: CCRF-CEM leukemia; test: NCI-60 one-dose screen, 48 h (100 = growth as untreated, 0 = no growth, -100 = all killed); conditions: 10 µM unless noted
The panel holds about 83,000 compounds, 20% with a hit somewhere; the sample as a whole holds those more often.
So basically: growth at 80% or higher? That is y. Lower than 80%? That is n.

Enquiry: Threshold query (growth >= 80%) on Clc1cccc(NCOOC2(OOCNc3cccc(Cl)c3)CCCCC2)c1
Return: n

Enquiry: Threshold query (growth >= 80%) on CCCC(C)C1(CC)C(=O)NC(=O)N(C)C1=O (stereo not drawn)
Return: y

Enquiry: Threshold query (growth >= 80%) on CCC1(C)CC(CCNCc2ccccc2O)(c2ccc(C)cc2)CCO1 (stereo not drawn)
Return: y

* * *

test system: RPMI-8226 leukemia; test: NCI-60 one-dose screen, 48 h (100 = growth as untreated, 0 = no growth, -100 = all killed); conditions: 10 µM unless noted
Compounds without any hit were thinned out: in the full panel of roughly 83,000, 20% have a hit.
Reported growth by item:
Numeric answer only, unit % assumed.

> print(dat)
                                   compound         test.target  measured.result
1  C[C@]12CCc3nc(Nc4ccccc4F)sc3C1=CC[C@@H]1[C@@H]2CC[C@]2(C)C(=O)CC[C@@H]12  RPMI-8226 leukemia               15
2  ClCCN(CCCl)c1nc(Cl)c(C2CC(c3ccccc3)=NN2c2cc(Cl)cc(Cl)c2)s1 (centres undefined)  RPMI-8226 leukemia              108
3  COc1cc(NC(C)CCCNC2CN3CCC2CC3)c2ncccc2c1 (centres undefined)  RPMI-8226 leukemia             72.9

Enquiry: Name the recorded growth for O=C1C(Cl)=C(N2CCOCC2)C(=O)c2ccccc21 .
Return: -3.69

Enquiry: Name the recorded growth for [Cl][Hg][c]1cc[c]([Hg][Cl])o1 .
Return: 1.23

Enquiry: Name the recorded growth for CCN(CCO)C(Cc1ccccc1)c1ccccc1 (centres undefined) .
Return: 98.9

Enquiry: Name the recorded growth for COC(=O)[C@@H](C)C[C@H](Cc1ccccc1)NC(=O)c1csc([C@@H](C[C@H](C(C)C)N(C)C(=O)[C@@H](NC(=O)[C@H]2CCCCN2C)C2CC2)OC(C)=O)n1 .
Return: 34.9

Enquiry: Name the recorded growth for COc1cccc2c1c(C(=O)C(=O)Nc1ccn[nH]1)cn2Cc1ccc(F)cc1 .
Return: 96.8

Enquiry: Name the recorded growth for COc1cc2c(cc1OCCCCn1c(-c3cccs3)nc3ccccc31)N=C[C@@H]1CCCN1C2=O .
Return: -46.8

* * *

tested on: NCI-H23 lung; assay: NCI-60 one-dose screen, 48 h; settings: 10 µM unless noted
The panel holds about 83,000 compounds, 20% with a hit somewhere; the sample as a whole holds those more often. Activity calls are given as the source filed them. Rule for the calls: active = growth percent below 10; inactive = the rest.
Hello, when you answer, please use one of the following outcomes: t = active, f = inactive

> print(dat)
                                   compound  class.name
1  CCCCCN(CCCCC)CC(O)c1cc(Cl)ccc1OC (stereo not given)           f
2  COc1ccc(NC([Se])=NC23CC4CC(CC(C4)C2)C3)cc1           t
3  [Au+].[N-]=C=O.c1ccc(CN2[CH-]N(Cc3ccccc3)C(c3ccccc3)=C2c2ccccc2)cc1           f
4  O=C(O)c1ccc([S-])cc1.[Au+].c1ccc(CN2[CH-]N(Cc3ccccc3)C(c3ccccc3)=C2c2ccccc2)cc1           t

Okay, now this compound:
Enquiry: // outcome(item) with item = Nc1c(F)cc(-c2nc3cc(F)ccc3[se]2)cc1Br
Return: f
